Recorded side-effect index by entry
# System: Hongro apple flowers
# protocol: Side-effect of the agents toward Hongro apple flowers
# Format: in vivo
# Parameters: key: 0: no side-effect is observed, and it is same as no treatment of the agents; 1: the side-effect are observed in flowers, but they recover to normal fruition in a week; 2: a fall-out of flowers and 10% decrease in fruition rate; 3: about 40% loss; 4: 60% loss; 5: a severe loss in fruition
# condition-parameters: 1.0 mM
experimental-readout: side-effect index

>>> print(df.to_string())
                                   molecule  experimental_readout  recorded_measurement
0  O=S(=O)([O-])[O-].[Cu+2] [CuSO4, reference compound]     side-effect index                     3
1  O=S(=O)([O-])[O-].[Zn+2] [ZnSO4, reference compound]     side-effect index                     2
2  COCCOCCOCC(=O)[O-].COCCOCCOCC(=O)[O-].[Cu+2]     side-effect index                     0
3  CCC(=O)[O-].CCC(=O)[O-].[Cu+2] [Cu(II) Propionate]     side-effect index                     0
4  CCC(=O)[O-].CCC(=O)[O-].[Zn+2] [Zn(II) Propionate]     side-effect index                     0
5  COCCOCCOCC(=O)[O-].COCCOCCOCC(=O)[O-].[Zn+2]     side-effect index                     0
6  COCCOCC(=O)[O-].COCCOCC(=O)[O-].[Cu+2] [Cu(II) 2-methoxyethoxyacetate]     side-effect index                     0
7  COCCOCC(=O)[O-].COCCOCC(=O)[O-].[Zn+2] [Zn(II) 2-methoxyethoxyacetate]     side-effect index                     0

====

# System: style-specific S RNase of Fuji apple
# protocol: Inhibition of the activity of a style-specific S RNase by the agents
# Assay type: biochemical
# condition-parameters: optical density at 260 nm (A260), agent 2.0 mM, no treatment 1.10
Recorded OD (2.0 mM) by entry

compound	OD (2.0 mM)
COCCOCC(=O)[O-].COCCOCC(=O)[O-].[Zn+2] [Zn(II) 2-methoxyethoxyacetate]	0.64
C[C@H](O)C(=O)O.C[C@H](O)C(=O)O.[Zn] [Zn(II) L-lactate]	0.73
CCCOC(C)C(=O)[O-].CCCOC(C)C(=O)[O-].[Cu+2] (stereo not drawn) [Cu(II) 2-propoxypropionate]	0.72
COC(C)C(=O)[O-].COC(C)C(=O)[O-].[Zn+2] (stereo not drawn) [Zn(II) 2-methoxypropionate]	0.73
CCCOCC(=O)[O-].CCCOCC(=O)[O-].[Cu+2] [Cu(II) propoxyacetate]	0.73
Cc1ccc(S(=O)(=O)[O-])cc1.Cc1ccc(S(=O)(=O)[O-])cc1.[Cu+2] [Cu(II) p-toluene sulfonate]	0.72
CCCOCCOCCOCC(=O)[O-].CCCOCCOCCOCC(=O)[O-].[Zn+2] [Zn(II) 2-(2-propoxyethoxy)ethoxyacetate, Zn(II) 2-(2-propoxyethoxy) ethoxyacetate]	0.69
CC(=O)[O-].CC(=O)[O-].[Cu+2] [Cu(II) Acetate]	0.70
CCCOCCOCCOCC(=O)[O-].CCCOCCOCCOCC(=O)[O-].[Cu+2] [Cu(II) 2-(2-propoxyethoxy)ethoxyacetate, Cu(II) 2-(2-propoxyethoxy) ethoxyacetate]	0.67
O=S(=O)([O-])c1ccccc1.O=S(=O)([O-])c1ccccc1.[Cu+2] [Cu(II) Benzene sulfonate]	0.72
CCOCCOc1ccc(S(=O)(=O)[O-])cc1.CCOCCOc1ccc(S(=O)(=O)[O-])cc1.[Zn+2]	0.72
COCCOCCOC(C)C(=O)[O-].COCCOCCOC(C)C(=O)[O-].[Zn+2] (stereo not drawn)	0.62
COCC(=O)[O-].COCC(=O)[O-].[Zn+2] [Zn(II) methoxyacetate]	0.71
COCCOCCOc1ccc(S(=O)(=O)[O-])cc1.COCCOCCOc1ccc(S(=O)(=O)[O-])cc1.[Cu+2]	0.68
CCOCC(=O)[O-].CCOCC(=O)[O-].[Zn+2] [Zn(II) ethoxyacetate]	0.73
COCCOCCOCC(=O)[O-].COCCOCCOCC(=O)[O-].[Zn+2]	0.62
COCCOC(C)C(=O)[O-].COCCOC(C)C(=O)[O-].[Cu+2] (stereo not drawn) [Cu(II) 2-(2-methoxyethoxy)propionate, Cu(II) 2-(2-methoxyethoxy) propionate]	0.64
O=C([O-])[C@H](O)[C@@H](O)[C@H](O)[C@H](O)CO.O=C([O-])[C@H](O)[C@@H](O)[C@H](O)[C@H](O)CO.[Cu+2] [Cu(II) Gluconate]	0.70
O=C[O-].O=C[O-].[Cu+2] [Cu(Il) Formate]	0.74
CCC(=O)[O-].CCC(=O)[O-].[Cu+2] [Cu(II) Propionate]	0.73
O=S(=O)([O-])c1ccccc1.O=S(=O)([O-])c1ccccc1.[Zn+2] [Zn(II) Benzene sulfonate]	0.74
COCCOCCOCCOCC(=O)[O-].COCCOCCOCCOCC(=O)[O-].[Cu+2]	0.66
CCCOC(C)C(=O)[O-].CCCOC(C)C(=O)[O-].[Zn+2] (stereo not drawn) [Zn(II) 2-propoxypropionate]	0.72
O=S(=O)([O-])[O-].[Zn+2] [ZnSO4, reference compound]	0.72
COCCOCCOCC(=O)[O-].COCCOCCOCC(=O)[O-].[Cu+2]	0.63
CCCOCC(=O)[O-].CCCOCC(=O)[O-].[Zn+2] [Zn(II) propoxyacetate]	0.75
CCOCCOc1ccc(S(=O)(=O)[O-])cc1.CCOCCOc1ccc(S(=O)(=O)[O-])cc1.[Cu+2]	0.72
O=C([O-])[C@H](O)[C@@H](O)[C@H](O)[C@H](O)CO.O=C([O-])[C@H](O)[C@@H](O)[C@H](O)[C@H](O)CO.[Zn+2] [Zn(II) Gluconate]	0.73
COC(C)C(=O)[O-].COC(C)C(=O)[O-].[Cu+2] (stereo not drawn) [Cu(II) 2-methoxypropionate]	0.72
COCCOCCOC(C)C(=O)[O-].COCCOCCOC(C)C(=O)[O-].[Cu+2] (stereo not drawn)	0.61

====

Recorded side-effect index by entry
# System: Hongro apple flowers
# protocol: Side-effect of the agents toward Hongro apple flowers
# Format: in vivo
# Design: key: 0: no side-effect is observed, and it is same as no treatment of the agents; 1: the side-effect are observed in flowers, but they recover to normal fruition in a week; 2: a fall-out of flowers and 10% decrease in fruition rate; 3: about 40% loss; 4: 60% loss; 5: a severe loss in fruition
# condition-parameters: 20.0 mM
experimental-readout: side-effect index

>>> df
                                   compound  recorded_measurement
0  O=S(=O)([O-])[O-].[Cu+2] [CuSO4, reference compound]                     5
1  COCCOCC(=O)[O-].COCCOCC(=O)[O-].[Zn+2] [Zn(II) 2-methoxyethoxyacetate]                     1
2  COCCOCC(=O)[O-].COCCOCC(=O)[O-].[Cu+2] [Cu(II) 2-methoxyethoxyacetate]                     2
3  CCC(=O)[O-].CCC(=O)[O-].[Zn+2] [Zn(II) Propionate]                     1
4  COCCOCCOCC(=O)[O-].COCCOCCOCC(=O)[O-].[Zn+2]                     1
5  COCCOCCOCC(=O)[O-].COCCOCCOCC(=O)[O-].[Cu+2]                     1
6  CCC(=O)[O-].CCC(=O)[O-].[Cu+2] [Cu(II) Propionate]                     1
7  O=S(=O)([O-])[O-].[Zn+2] [ZnSO4, reference compound]                     5

====

Recorded side-effect index by entry
# Test system: Hongro apple flowers
# protocol: Side-effect of the agents toward Hongro apple flowers
# Format: in vivo
# Design: key: 0: no side-effect is observed, and it is same as no treatment of the agents; 1: the side-effect are observed in flowers, but they recover to normal fruition in a week; 2: a fall-out of flowers and 10% decrease in fruition rate; 3: about 40% loss; 4: 60% loss; 5: a severe loss in fruition
# condition-parameters: 5.0 mM

compound	side-effect index
O=S(=O)([O-])[O-].[Zn+2] [ZnSO4, reference compound]	5
CCC(=O)[O-].CCC(=O)[O-].[Cu+2] [Cu(II) Propionate]	0
COCCOCCOCC(=O)[O-].COCCOCCOCC(=O)[O-].[Cu+2] [Cu(II) 2-(2-methoxyethoxy)ethoxyacetete, Cu(II) 2-(2-methoxyethoxy) ethoxyacetete]	0
O=S(=O)([O-])[O-].[Cu+2] [CuSO4, reference compound]	5
CCC(=O)[O-].CCC(=O)[O-].[Zn+2] [Zn(II) Propionate]	0
COCCOCC(=O)[O-].COCCOCC(=O)[O-].[Zn+2] [Zn(II) 2-methoxyethoxyacetate]	0
COCCOCC(=O)[O-].COCCOCC(=O)[O-].[Cu+2] [Cu(II) 2-methoxyethoxyacetate]	0
COCCOCCOCC(=O)[O-].COCCOCCOCC(=O)[O-].[Zn+2] [Zn(II) 2-(2-methoxyethoxy)ethoxyacetete, Zn(II) 2-(2-methoxyethoxy) ethoxyacetete]	0
